- assayed-system: hAChE (Homo sapiens, UniProt P22303)
- Sequence (P22303 32-614): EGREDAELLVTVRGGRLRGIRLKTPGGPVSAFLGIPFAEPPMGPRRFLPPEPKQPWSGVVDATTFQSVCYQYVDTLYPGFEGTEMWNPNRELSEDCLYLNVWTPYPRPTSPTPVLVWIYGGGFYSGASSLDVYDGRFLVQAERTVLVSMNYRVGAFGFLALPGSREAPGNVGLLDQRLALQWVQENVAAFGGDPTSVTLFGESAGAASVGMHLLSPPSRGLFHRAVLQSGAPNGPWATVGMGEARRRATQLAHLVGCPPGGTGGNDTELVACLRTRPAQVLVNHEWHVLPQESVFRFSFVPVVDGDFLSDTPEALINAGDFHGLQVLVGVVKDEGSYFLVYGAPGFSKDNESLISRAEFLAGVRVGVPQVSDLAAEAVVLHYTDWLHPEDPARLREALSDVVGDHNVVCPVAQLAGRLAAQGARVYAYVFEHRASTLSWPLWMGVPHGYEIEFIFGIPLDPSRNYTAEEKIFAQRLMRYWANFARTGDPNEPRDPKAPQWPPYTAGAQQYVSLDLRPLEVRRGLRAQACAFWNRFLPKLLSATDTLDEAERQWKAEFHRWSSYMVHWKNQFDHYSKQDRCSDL
- test-details: ChE IC50 determination, method of Ellman, hAChE
- Assay type: biochemical
- condition-context: residual activity at 100 μmol/L, after 5 min preincubation; read-out: hAChE RA±SD (residual activity)
- Protocol: The inhibitory potencies of the compounds against the ChEs were determined using the method of Ellman following the procedure described previously. […] The increase in absorbance at 412 nm was monitored for 2 min using a 96-well microplate reader (Synergy HT, BioTek Instruments, VT, USA). The initial velocities in the presence (vi) and absence (v0) of the test compounds were calculated. The inhibitory potencies were expressed as the residual activities, according to Eq. (1):(1) RA = vi / v0 […]
metric-name: remaining activity at 100 µM (%)
Give the value in % but do not write % after it.

molecule	remaining activity at 100 µM [%]
CCC1(c2cncn2C)Cc2ccccc2C1 [Compound 12]	74
CCC1(c2cn[nH]n2)Cc2ccccc2C1 [Compound 14, 4-(2-Ethylindan-2-yl)-2H-1,2,3-triazole]	85
CCN(CC)C(=O)n1cnc(C2(CC)Cc3ccccc3C2)c1 [Compound 8]	62
CCC1(c2cnc[nH]2)Cc2ccccc2C1 [Compound 5, 4-(2-ethylindan-2-yl)-1H-imidazole, reference compound]	82
CCC1(c2nc[nH]n2)Cc2ccccc2C1 [Compound 16, 3-(2-Ethylindan-2-yl)-1H-1,2,4-triazole]	83
CCC1(c2cn(C(=S)N(C)C)cn2)Cc2ccccc2C1 [Compound 11]	69

IN: Recorded remaining activity at 100 µM for CCN(C)C(=O)n1cnc(C2(CC)Cc3ccccc3C2)c1 [Compound 7] , please?
OUT: 52

IN: Ok, now CCC1(c2cn(C(=O)N(C)Cc3ccccc3)cn2)Cc2ccccc2C1 [Compound 10]
OUT: 34

* * *

- assayed-system: hBChE (Homo sapiens)
- Sequence (P06276 29-602): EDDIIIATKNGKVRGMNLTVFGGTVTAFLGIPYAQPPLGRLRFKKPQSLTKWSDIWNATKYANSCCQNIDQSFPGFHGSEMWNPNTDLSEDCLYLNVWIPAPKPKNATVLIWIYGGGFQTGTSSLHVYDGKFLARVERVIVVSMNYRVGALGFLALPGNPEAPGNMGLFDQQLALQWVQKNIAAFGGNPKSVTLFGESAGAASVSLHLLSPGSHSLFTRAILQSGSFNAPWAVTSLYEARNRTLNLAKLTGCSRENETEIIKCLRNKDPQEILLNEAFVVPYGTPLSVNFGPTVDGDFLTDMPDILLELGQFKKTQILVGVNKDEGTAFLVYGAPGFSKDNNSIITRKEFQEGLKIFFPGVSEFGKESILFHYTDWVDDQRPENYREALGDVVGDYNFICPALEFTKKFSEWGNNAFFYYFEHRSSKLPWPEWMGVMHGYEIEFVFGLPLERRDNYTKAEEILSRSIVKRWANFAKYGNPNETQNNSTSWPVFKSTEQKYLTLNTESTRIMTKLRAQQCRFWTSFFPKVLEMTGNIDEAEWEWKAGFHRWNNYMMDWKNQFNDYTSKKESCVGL
- test-details: hBChE binding kinetics: carbamoylation and decarbamoylation, initial velocity measurements
- Type: biochemical
molecules and their reported pKi
Please treat pKi as minus the base-10 logarithm of the molar concentration.

molecule	pKi
CCN(C)C(=O)n1cnc(C2(CC)Cc3ccccc3C2)c1 [Compound 7]	7.14
CCC1(c2cn(C(=O)N(C)C)cn2)Cc2ccccc2C1 [Compound 6]	6.94

Then this molecule:
IN: Recorded pKi for CCN(CC)C(=O)n1cnc(C2(CC)Cc3ccccc3C2)c1 [Compound 8] , please?
OUT: 5.55

* * *

- test-details: MTS assay, metabolic activity
- Type: cell-based
- condition-context: human, SH-SY5Y neuroblastoma cells, read-out: cytotoxic EC50
metric-name: EC50 at 48 h

IN: Recorded EC50 at 48 h for CCN(CC)C(=O)n1cnc(C2(CC)Cc3ccccc3C2)c1 , please?
OUT: > 100 µM

* * *

- test-details: Hydrolysis of 8 in human plasma
- Assay type: in vitro ADME
- condition-context: human, plasma; 37 °C, nominal starting concentration 20 μg/L
metric-name: half-life at 20 μg/L (h)
Give the value in h but do not write h after it.

IN: Recorded half-life at 20 μg/L for CCN(CC)C(=O)n1cnc(C2(CC)Cc3ccccc3C2)c1 , please?
OUT: 5

* * *

- test-details: pKa from solubility and partition measurements
- Format: physicochemical
- condition-context: break in the logP vs. pH and log(solubility) vs. pH plot
- Description: The supernatants were diluted 1:5 with 50% MeCN or used directly for UPLC analysis (calibration curve was constructed from 0.5–100 mg/L standard solutions of compound 8). Shake-flask partition coefficient measurement was done according to OECD guideline 107 (27. 7. 1995) and EPA OPPTS 830.7550 guideline (1996). Briefly, PBS pH 7.4 buffer (50 mL) and n-octanol (50 mL) were thoroughly shaken to ensure saturation of both phases and left to separate. […]
metric-name: pKa
API note: the answer field is a bare number with no unit suffix.

IN: Recorded pKa for CCN(CC)C(=O)n1cnc(C2(CC)Cc3ccccc3C2)c1 , please?
OUT: 4.1
